# MEASUREMENT_NOTES: total protein half-life in vivo (active degradation + dilution); higher = more stable protein
# TEST_CONDITIONS: wild type E. coli NCM3722; growth: C-lim chemostat; doubling time 12 h
Listed below: total protein half-life in vivo values for each entry.
Please give a number only; it is taken to be in h.

RESIDUES	OBSERVED_PROPERTY	QUANTITATIVE_RESULT
MRLGTFHKKKRFYINKIKINFLSFLFRNKINNQITDPAQVKSCLIIHDNNKLGDLIVLSSIYRELYSKGVKITLLTNRKGGEFLSNNKNIFEFCIKESTGFLEMLTLCKHLRDLQFDIVLDPFETMPSFKHSLILSSLKDSYILGFDHWYKRYYSFYHPHDECLKEHMSTRAIEILKHIYGEGKFSTNYDLHLPVDVEDKIKEFIGDTRIVIINPLGAKKICRLTFEQIKVIYQEVKTHFENYRIIFTGLPQDLLTIPILEIETLPFDEFIYTVALTKYSDFVISVDTALVHIAAAYHKPTLAFYPNSRTPEYPSHLIWSPNHHKSIQIVSPTYTVKDIDTETLTNSVKRLSCIDKK	total protein half-life in vivo	11.5

Now consider the entry below.
## Task Note down total protein half-life in vivo recorded for MEISFTRVALLAAALFFVGCDQKPQPAKTHATEVTVLEGKTMGTFWRASIPGIDAKRSAELKEKIQTQLDADDQLLSTYKKDSALMRFNDSQSLSPWPVSEAMADIVTTSLRIGAKTDGAMDITVGPLVNLWGFGPEQQPVQIPSQEQIDAMKAKTGLQHLTVINQSHQQYLQKDLPDLYVDLSTVGEGYAADHLARLMEQEGISRYLVSVGGALNSRGMNGEGLPWRVAIQKPTDKENAVQAVVDINGHGISTSGSYRNYYELDGKRLSHVIDPQTGRPIEHNLVSVTVIAPTALEADAWDTGLMVLGPEKAKEVVRREGLAVYMITKEGDSFKTWMSPQFKSFLVSEKN [P0AB85]
## Result 11.9
